Recorded measurements of protein stability index, one per entry
B1: APBB1IP (parent)
chain: SQVSMWDQRWQDHQPLLPITDVP

variants of: B1; test: protein stability index of a GFP-peptide fusion (GPS, HEK-293T) (PSI 1-6); higher = more stable; conditions: c terminus: native;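 further: lentivirally expressed fusions sorted by FACS into six bins by GFP to DsRed ratio, PSI derived from sequencing read proportions per bin multiplied by bin number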

>  <SEQUENCE INPUT>
SQVSMWDQRWQDHQPLLPIDDVP [T20D]

>  <protein stability index>
2.67

$$$$
>  <SEQUENCE INPUT>
SQVSMWDQGWQDHQPLLPITDVP [R9G]

>  <protein stability index>
2.89

$$$$
>  <SEQUENCE INPUT>
SQVSMWDQRWQDHQLLLPITDVP [P15L]

>  <protein stability index>
2.06

$$$$
>  <SEQUENCE INPUT>
SQVSMWDQRWQDHGPLLPITDVP [Q14G]

>  <protein stability index>
2.54

$$$$
>  <SEQUENCE INPUT>
SQVSMWDQRWQDHNPLLPITDVP [Q14N]

>  <protein stability index>
2.89

$$$$
>  <SEQUENCE INPUT>
SQVSMWDQRWQDHQPLNPITDVP [L17N]

>  <protein stability index>
3.1

$$$$
>  <SEQUENCE INPUT>
SQVNMWDQRWQDHQPLLPITDVP [S4N]

>  <protein stability index>
2.92

$$$$
>  <SEQUENCE INPUT>
SQVSMWDQRWQDHQNLLPITDVP [P15N]

>  <protein stability index>
2.77

$$$$
>  <SEQUENCE INPUT>
SQVSMWDQRWQDHQPLLPIFDVP [T20F]

>  <protein stability index>
2.58

$$$$
>  <SEQUENCE INPUT>
SQVSMWDQRWQDHQPLLPIRDVP [T20R]

>  <protein stability index>
2.32

$$$$
>  <SEQUENCE INPUT>
SQVSMWDCRWQDHQPLLPITDVP [Q8C]

>  <protein stability index>
1.37

$$$$
>  <SEQUENCE INPUT>
SQVSKWDQRWQDHQPLLPITDVP [M5K]

>  <protein stability index>
2.64

$$$$
>  <SEQUENCE INPUT>
SQVSMWDQRWQDHLPLLPITDVP [Q14L]

>  <protein stability index>
2

$$$$
>  <SEQUENCE INPUT>
SQVSMWHQRWQDHQPLLPITDVP [D7H]

>  <protein stability index>
1.68

$$$$
>  <SEQUENCE INPUT>
SQVSMWDQRWQDHQPLDPITDVP [L17D]

>  <protein stability index>
3.79

$$$$
>  <SEQUENCE INPUT>
SQVSMWWQRWQDHQPLLPITDVP [D7W]

>  <protein stability index>
1.49

$$$$
>  <SEQUENCE INPUT>
SQVFMWDQRWQDHQPLLPITDVP [S4F]

>  <protein stability index>
1.98

$$$$
>  <SEQUENCE INPUT>
SQVSMWDQRWQDHQVLLPITDVP [P15V]

>  <protein stability index>
1.55

$$$$
>  <SEQUENCE INPUT>
SQVSMWDQRWQDHQPLLPATDVP [I19A]

>  <protein stability index>
2.67

$$$$
>  <SEQUENCE INPUT>
SQVSMWDQRWQDHQPLLPITDVM [P23M]

>  <protein stability index>
1.19

$$$$
>  <SEQUENCE INPUT>
SQVSMWDQRWWDHQPLLPITDVP [Q11W]

>  <protein stability index>
1.77

$$$$
>  <SEQUENCE INPUT>
SQVSMWDQRWQDHQPLLPMTDVP [I19M]

>  <protein stability index>
2.62

$$$$
